- Assay: Compound was evaluated for first-order rate constant for acid-catalyzed solvolysis at pH 7.6
- Assay type: ADME
Measure: log10 k (log10 of the value in s⁻¹)

>>> readout_number("COc1ccc2c(c1)[C@@]13C[C@@H]1CN(C(=O)OC(C)(C)C)C3=CC2=O")
-5.76
>>> readout_number("CC(C)(C)OC(=O)N1C[C@H]2C[C@@]23C1=CC(=O)c1ccc(C#N)cc13")
-6.00
>>> readout_number("COC(=O)c1cc2c([nH]1)C(=O)C=C1N(C(=O)OC(C)(C)C)C[C@H]3C[C@]123")
-5.97
>>> readout_number("CC(C)(C)OC(=O)N1C[C@H]2C[C@@]23C1=CC(=O)c1ccccc13")
-5.84
>>> readout_number("COc1cc2cc(C(=O)N3C[C@H]4C[C@@]45C3=CC(=O)c3ccc(C#N)cc35)[nH]c2c(OC)c1OC")
-10.60
>>> readout_number("COC(=O)c1cc2c([nH]1)C(=O)C=C1N(C(=O)c3cc4cc(OC)c(OC)c(OC)c4[nH]3)C[C@H]3C[C@]123 [DUOCARMYCIN]")
-10.57
